Biological target: SARS-CoV-2 3CLpro (Severe acute respiratory syndrome coronavirus 2, UniProt P0DTD1)
Assay: biochemical
Format: biochemical
Parameters: unit not given here
Settings: LOPAC1280 primary screen with protease, 5 µM compound, mean of the two replicates
Counter-ions that a name gives are not always drawn.
Provide the reported mean (LOPAC_screen_w_protease) of each item.
One number for each entry.

CN1CCN(CC(=O)N2c3ccccc3C(=O)Nc3cccnc32)CC1 [Pirenzepine dihydrochloride]; 1.931
COc1ccc2[nH]cc(CCN)c2c1.Cl [O-Methylserotonin hydrochloride]; 2.11
CN[C@@H]1C[C@@H](c2ccc(Cl)c(Cl)c2)c2ccccc21 [Indatraline hydrochloride]; 2.022
OCCN1CCN(CCCN2c3ccccc3Sc3ccc(C(F)(F)F)cc32)CC1 [Fluphenazine dihydrochloride]; 2.023

For every item in the list below, what is its measured mean (LOPAC_screen_w_protease)?
1. CCNC(=O)[C@H]1O[C@@H](n2cnc3c(N)ncnc32)[C@H](O)[C@@H]1O [5'-N-Ethylcarboxamidoadenosine]
2. Cc1nc(N=Nc2ccc(C(=O)O)cc2)c(COP(=O)(O)O)c(C=O)c1O [MRS 2159]
3. Br.CO[C@H]1CC=C2CCN3CCC4=C(CC(=O)OC4)[C@]23C1 [Dihydro-beta-erythroidine hydrobromide]
4. CC(C)NCC(O)c1ccc(O)c(O)c1.Cl (single isomer, unassigned; (-)) [(-)-Isoproterenol hydrochloride]
5. Br.Br.N=C(N)SCCN
6. c1ccc(C2CC2)c(OCC2=NCCN2)c1 [Cirazoline hydrochloride]
7. NNCc1cccc(O)c1 [3-Hydroxybenzylhydrazine dihydrochloride]

Given back:
1. 1.81
2. 1.803
3. 2.038
4. 2.084
5. 2.032
6. 1.832
7. 2.074

For every item in the list below, what is its measured mean (LOPAC_screen_w_protease)?
1. Cl.N=C(N)NC(=N)Nc1cccc(Cl)c1
2. O=C(O)C1=CCNCC1 [Isoguvacine hydrochloride]
3. Br.COc1ccc2c(c1)[C@]13CCCC[C@@H]1[C@H](C2)N(C)CC3.O
4. C[N+]1(C)[C@@H]2CC[C@H]1C[C@@H](OC(=O)C(CO)c1ccccc1)C2 (stereo partly drawn) [Atropine methyl bromide]
5. CN(C)CCOC(c1ccccc1)c1ccccc1 [Diphenhydramine hydrochloride]

Given back:
1. 1.751
2. 1.964
3. 1.973
4. 1.779
5. 1.841

For every item in the list below, what is its measured mean (LOPAC_screen_w_protease)?
1. NCCc1c[nH]c2ccc(C(N)=O)cc12.O=C(O)/C=C\C(=O)O [5-Carboxamidotryptamine maleate]
2. N#CC(=Cc1c[nH]c2ccccc12)C(=O)c1ccc(O)c(O)c1 [Tyrphostin AG 808]

Given back:
1. 1.776
2. 1.999
